Reference for the values: ChEMBL document CHEMBL1641524

Exercise: state measured IC50 for each of the compounds provided.
molecular target: C-X-C chemokine receptor type 4 (Homo sapiens, UniProt P61073); test: Antagonist activity at CXCR4 in human CEM-CCRF cells expressing CD4 assessed as inhibition of SDF-1-induced Ca2+ signaling; type: functional, cell-based
Sequence (P61073 whole entry): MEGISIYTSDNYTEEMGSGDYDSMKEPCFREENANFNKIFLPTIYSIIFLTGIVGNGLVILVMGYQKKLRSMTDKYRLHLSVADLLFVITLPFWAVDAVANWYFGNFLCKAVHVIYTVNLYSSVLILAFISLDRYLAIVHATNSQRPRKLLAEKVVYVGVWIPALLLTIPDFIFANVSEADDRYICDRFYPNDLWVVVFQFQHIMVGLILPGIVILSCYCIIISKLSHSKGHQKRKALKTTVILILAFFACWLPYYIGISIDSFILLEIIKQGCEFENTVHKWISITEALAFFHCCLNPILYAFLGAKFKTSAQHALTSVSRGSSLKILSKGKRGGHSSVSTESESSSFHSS
// return numeric value only (unit: nM, not printed)

Identify measured IC50 associated with NCc1cc(C(F)(F)F)ccc1CN(Cc1nc2ccccc2[nH]1)C1CCCc2cccnc21 (centres undefined)
51

Identify measured IC50 associated with NCc1cc(C(=O)O)ccc1CN(Cc1nc2ccccc2[nH]1)C1CCCc2cccnc21 (centres undefined)
126

Identify measured IC50 associated with NCc1ccncc1CN(Cc1nc2ccccc2[nH]1)C1CCCc2cccnc21 (centres undefined)
160

Identify measured IC50 associated with NCc1ncoc1CN(Cc1nc2ccccc2[nH]1)C1CCCc2cccnc21 (centres undefined)
1.3
